// data source = paper PMC5540273

system: PRKX; conditions: concentration: 1 μM, replicates: in singlicate; n = 1;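 note: KINOMEscan kinase panel screen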
Reported %Inh values for the following compounds.
readout_label: %Inh (%)

# query_smiles, numeric_value
measured = [
    ("Cc1ccc(S(=O)(=O)Nc2ccc(Nc3nccc(Nc4cccc5[nH]ncc45)n3)cc2)cc1", 6),
    ("Cc1ccc(C(=O)Nc2ccc(Nc3ccnc4cc(-c5nccs5)ccc34)cc2O)cc1.Cl", 11),
    ("O=C(Nc1ccccc1F)NC1CCN(c2ccnc(Nc3ccc(F)cc3)n2)CC1", 7),
    ("Cl.c1ccc(-c2ccc3c(Nc4ccc5[nH]ncc5c4)ccnc3c2)nc1", 19),
    ("CN(C)S(=O)(=O)c1cc(-c2ccc3nccc(-c4cccc(S(N)(=O)=O)c4)c3c2)cnc1N", 27),
]

---

Reported %Inh values for the following compounds.
tested on: RSK3(Kin.Dom.1-N-terminal); construct: gene RPS6KA2; details: concentration: 1 μM, replicates: in singlicate; n = 1
readout_label: %Inh

# compound, result
records = [
    ("CCn1c(-c2nonc2N)nc2c(C#CC(C)(C)O)ncc(OCCCCN)c21.O=C(O)C(F)(F)F.O=C(O)C(F)(F)F", "11%"),
    ("COc1cccc(-c2ccc3c(NC(=O)C4CC4)n[nH]c3n2)c1", "6%"),
    ("O=C(NC1CCN(c2ccnc(Nc3ccc(F)cc3)n2)C1)c1cc2ccccc2s1 (centres unmarked)", "20%"),
    ("COc1cccc(C(=O)Nc2cccc(Oc3ccc4nc(NC(=O)C5CC5)cn4n3)c2)c1", "5%"),
    ("CC(C)(C)c1ccc2nccc(Nc3cccc(O)c3)c2c1", "19%"),
    ("COc1cc(Nc2ncc3c(C)nc(-c4cc5ccccc5[nH]4)n3n2)cc(OC)c1OC", "66%"),
    ("Cn1cc(-c2ccc3c(c2)CCN3C(=O)Cc2cccc(Cl)c2)c2c(N)ncnc21", "16%"),
    ("COc1ccc(CNC(=O)NC2CCN(c3ccnc(Nc4ccc(F)cc4)n3)CC2)cc1", "0%"),
]

---

Reported %Inh values for the following molecules.
test system: RIOK2; settings: concentration: 1 μM, replicates: in singlicate; n = 1

# molecule, u, %Inh
data = [
    ("CCc1ccc(-c2ccc3c(c2)-c2c(cnn2C)S(=O)(=O)N3C)cc1", "%", 12),
    ("O=C(Nc1cccc(-c2nn3ccccc3c2-c2ccnc(Nc3cccc(F)c3)n2)c1)c1c(F)ccc(F)c1Cl", "%", 51),
    ("Nc1ncc(-c2cccnc2)c2scc(-c3ccc4c(c3)CCN4C(=O)Cc3ccccc3)c12", "%", 96.6),
    ("C[C@@H]1CC[C@@H](C(=O)Nc2ccccc2)CN1c1cc(-c2ccc3c(N)n[nH]c3c2)nc(N)n1", "%", 52),
    ("CN1CCN(CCCNc2nccc(-c3c(-c4ccc(F)cc4)nn4cc(C(F)(F)F)ccc34)n2)CC1", "%", 4),
    ("CC(=O)Nc1nc2cnc(Nc3cc(NC(=O)c4cccc(C5(C#N)CC5)c4Cl)ccc3C)nc2s1", "%", 5),
    ("Cl.Cl.NCC(NCc1ccc(-c2ccnc3[nH]ccc23)s1)c1ccccc1 (stereo not shown)", "%", 44),
]

---

test system: GSK3A; conditions: concentration: 1 μM, replicates: in singlicate; n = 1
Note to self: %Inh under 1% means Y, ties and anything higher get N.

# molecule, group_label
rows = [
    ("COc1cc(Nc2nccc(N3CCC(NC(=O)c4cc5ccccc5s4)C3)n2)cc(OC)c1OC (centres unmarked) [GSK1379760]", "Y"),
    ("CC(C)(C)c1ccc2nccc(Nc3cccc(O)c3)c2c1 [GW856795]", "Y"),
    ("CC(=O)Nc1nc2cnc(Nc3cc(NC(=O)c4cccc(C5(C#N)CC5)c4Cl)ccc3C)nc2s1", "Y"),
    ("CCc1ccc(-c2ccc3c(c2)-c2c(cnn2C)S(=O)(=O)N3C)cc1", "Y"),
    ("COc1cccc(C2=C(Nc3ccc(Cl)c(C(=O)O)c3)C(=O)NC2=O)c1 [SB-390769]", "N"),
    ("COc1cc(Nc2ncc3c(C)nc(-c4cc5ccccc5[nH]4)n3n2)cc(OC)c1OC [GW869516]", "Y"),
    ("COC(=O)Nc1nc2ccc(Oc3ccc(NC(=O)Nc4cc(C(F)(F)F)ccc4F)cc3)cc2n1C.Cl [GW692089]", "N"),
    ("CCS(=O)(=O)c1ccc(OC)c(Nc2nccc(-c3c(-c4cccc(NC(=O)c5c(F)cccc5F)c4)nn4ncccc34)n2)c1 [GSK326180]", "N"),
    ("COc1cc2c(cc1OCCN1CCNCC1)ncc1c3ccc(C#N)cc3[nH]c21", "Y"),
    ("c1ccc(Oc2ccc(Nc3ccnc4cc(-c5ccc(CNCCN6CCOCC6)o5)ccc34)cc2)nc1 [GW567145]", "N"),
]

---

test system: YANK2; construct: gene STK32B; settings: concentration: 1 μM, replicates: in singlicate; n = 1

# compound, u, %Inh
rows = [
    ("O=C(Nc1ccccc1F)NC1CCN(c2ccnc(Nc3ccc(F)cc3)n2)CC1 [GSK1379800]", "%", 0),
    ("Cc1ccc(C(=O)N2CC[C@@H](O)C2)cc1-n1c(C)cc(OCc2ccc(F)cc2F)c(Br)c1=O", "%", 0),
    ("COc1cc(Nc2nccc(-c3c(-c4cccc(NC(=O)c5c(F)cccc5F)c4)nn4ncccc34)n2)cc(OC)c1OC [GSK327238]", "%", 89),
    ("c1ccc(-c2cnc3nccnn23)cc1 [AH20685]", "%", 0),
    ("CCn1c(-c2nonc2N)nc2c(C#CC(C)(C)O)ncc(OCCCCN)c21.O=C(O)C(F)(F)F.O=C(O)C(F)(F)F [GSK507274]", "%", 0),
    ("C[C@@H](Oc1cc(-n2cnc3cc(-c4ccnc(NCCS(C)(=O)=O)c4)ccc32)sc1C(N)=O)c1ccccc1Cl [GSK907232]", "%", 0),
    ("Nc1n[nH]c2cnc(-c3ccccc3)cc12 [SB-642124]", "%", 0),
    ("COc1ccc(-c2coc3ccc(-c4nnc(SCc5ccc(OC)c(C(F)(F)F)c5)o4)cc23)cc1", "%", 0),
    ("O=C(Nc1cccc(-c2nn3ccccc3c2-c2ccnc(Nc3cccc(C(F)(F)F)c3)n2)c1)c1c(F)cccc1F [GSK292658]", "%", 7),
    ("FC(F)(F)c1ccc(/C=C/c2cncnc2Nc2ccc3[nH]c(Cc4ccccc4)nc3c2)cc1 [GW709199]", "%", 0),
    ("Cc1ccc(C)c(NC(=O)NC2CCN(c3ccnc(Nc4ccc(F)cc4)n3)C2)c1 (centres unmarked) [GSK1379720]", "%", 0),
    ("COc1cccc(-c2ccc3c(NC(=O)C4CC4)n[nH]c3n2)c1 [SB-710903]", "%", 2),
    ("COc1ccc(CNC(=O)NC2CCN(c3ccnc(Nc4ccc(F)cc4)n3)CC2)cc1 [GSK1379788]", "%", 0),
    ("Cn1cc(-c2ccc3c(c2)CCN3C(=O)Cc2cccc(F)c2)c2c(N)ncnc21 [GSK2603358]", "%", 0),
    ("CN1CCN(Cc2cccc(-c3ccc4c(Nc5ccc(Oc6ccccc6)cc5)ccnc4c3)c2)CC1 [GW578342]", "%", 0),
    ("Nc1ncc(-c2ccc3nccc(-c4ccncc4)c3c2)cc1S(=O)(=O)N1CCOCC1 [GSK1627798]", "%", 0),
    ("COc1cccc(C2=C(Nc3ccc(Cl)c(C(=O)O)c3)C(=O)NC2=O)c1 [SB-390769]", "%", 7),
    ("CN(C)Cc1ccc(-c2ccc3c(Nc4ccc(Oc5ccccn5)cc4)ccnc3c2)o1 [GW567148]", "%", 0),
    ("Fc1ccc(-c2ncn(C3CCNCC3)c2-c2ccnc(Oc3ccc(-c4ccccc4)cc3)n2)cc1 [SB-245391]", "%", 85),
    ("Cc1cccc(Nc2nc(N[C@H]3CCNC3)ncc2C(N)=O)c1.Cl [GSK2197149]", "%", 0),
]

---

test system: MAK; settings: concentration: 1 μM, replicates: in singlicate; n = 1
readout_label: %Inh (%)

# molecule, study_system, readout_label, numeric_value
records = [
    ("COc1ccc(Nc2nccc(N3CCC(NC(=O)Nc4cccc(OC)c4)C3)n2)cc1 (stereo not shown)", "MAK", "%Inh", 17),
    ("Cl.c1ccc(-c2ccc3c(Nc4ccc5[nH]ncc5c4)ccnc3c2)nc1", "MAK", "%Inh", 21),
    ("CN(c1ccc(NC(=O)Nc2cc(C(F)(F)F)ccc2F)cc1)c1ccnc(Nc2ccc(S(N)(=O)=O)cc2)n1", "MAK", "%Inh", 95.7),
    ("COc1cc(Nc2nccc(-c3c(-c4cccc(NC(=O)c5c(F)cccc5F)c4)nn4ccccc34)n2)cc(OC)c1OC", "MAK", "%Inh", 9),
    ("Cl.c1ccc(-c2ccc3c(Nc4ccc5[nH]ccc5c4)ccnc3c2)nc1", "MAK", "%Inh", 1),
    ("Cl.Cl.NCC(NC(=O)c1cc(-c2ccccc2)c(-c2ccnc3[nH]ccc23)s1)c1ccccc1 (stereo not shown)", "MAK", "%Inh", 23),
    ("Cc1ccc(C)c(NC(=O)NC2CCN(c3ccnc(Nc4ccc(F)cc4)n3)C2)c1 (stereo not shown)", "MAK", "%Inh", 6),
    ("FC(F)(F)c1ccc(/C=C/c2cncnc2Nc2ccc3[nH]c(Cc4ccccc4)nc3c2)cc1", "MAK", "%Inh", 18),
    ("c1ccc(-c2n[nH]cc2Nc2ccnc3ccccc23)nc1", "MAK", "%Inh", 0),
    ("Cc1cccc(NC(=O)Nc2ccc(Oc3ncnc4ccn(C)c34)cc2)c1", "MAK", "%Inh", 0),
    ("Nc1ncnc2c1nc(-c1ccccc1)n2-c1ccccc1", "MAK", "%Inh", 27),
    ("Nc1ncc(-c2cccnc2)c2scc(-c3ccc4c(c3)CCN4C(=O)Cc3ccccc3)c12", "MAK", "%Inh", 28),
    ("COc1ccc(Nc2nccc(NCCNC(=O)c3cc4ccccc4s3)n2)cc1", "MAK", "%Inh", 27),
    ("CC(C)(C)c1ccc2nccc(Nc3cccc(O)c3)c2c1", "MAK", "%Inh", 40),
    ("COc1cc(Nc2ncc3c(C)nc(-c4cc5ccccc5[nH]4)n3n2)cc(OC)c1OC", "MAK", "%Inh", 0),
    ("Cn1cc(-c2ccc3c(c2)CCN3C(=O)Cc2cccc(Cl)c2)c2c(N)ncnc21", "MAK", "%Inh", 6),
    ("C[C@@H](Oc1cc(-n2cnc3cc(-c4ccnc(NCCS(C)(=O)=O)c4)ccc32)sc1C(N)=O)c1ccccc1Cl", "MAK", "%Inh", 0),
    ("COC(=O)Nc1nc2ccc(Oc3ccc(NC(=O)Nc4cc(C(F)(F)F)ccc4F)cc3)cc2n1C.Cl", "MAK", "%Inh", 0),
    ("Cl.Cl.NCC(NCc1ccc(-c2ccnc3[nH]ccc23)s1)c1ccccc1 (stereo not shown)", "MAK", "%Inh", 0),
    ("Cl.NC(=O)c1cccc(Nc2nccc(Nc3ccc(Oc4c(Cl)cccc4Cl)c(Cl)c3)n2)c1", "MAK", "%Inh", 27),
    ("CN1CCN(CCCNc2nccc(-c3c(-c4ccc(F)cc4)nn4cc(C(F)(F)F)ccc34)n2)CC1", "MAK", "%Inh", 3),
    ("Cc1ccc(S(=O)(=O)Nc2ccc(Nc3nccc(Nc4cccc5[nH]ncc45)n3)cc2)cc1", "MAK", "%Inh", 12),
    ("c1ccc(-c2cnc3nccnn23)cc1", "MAK", "%Inh", 33),
    ("Cc1occc1-c1ncc(OC[C@@H](N)Cc2c[nH]c3ccccc23)cc1-c1ccc2[nH]nc(C)c2c1.O=C(O)C(F)(F)F", "MAK", "%Inh", 3),
    ("COc1ccc(-c2coc3ccc(-c4nnc(SCc5ccc(OC)c(C(F)(F)F)c5)o4)cc23)cc1", "MAK", "%Inh", 22),
    ("COc1cc(Nc2nccc(-c3c(-c4cccc(NC(=O)c5c(F)cccc5F)c4)nn4ncccc34)n2)cc(OC)c1OC", "MAK", "%Inh", 12),
    ("CN(C)S(=O)(=O)c1cc(-c2ccc3nccc(-c4cccc(S(N)(=O)=O)c4)c3c2)cnc1N", "MAK", "%Inh", 19),
    ("COC(=O)Nc1nc2cc(Oc3ccc(NC(=O)Nc4cc(C(F)(F)F)ccc4F)cn3)ccc2[nH]1.Cl.Cl", "MAK", "%Inh", 0),
]
